- Tested on: HepG2 cells
- experiment-notes: HepG2 cytotoxicity assay
- Format: cell-based
- stated-conditions: mean
assay-readout: HepG2 cells mean TOX50 (µM)
Express the result in µM but write the number alone.

The following compounds have reported results that may help.
COc1ccc(N2CCN(CCCCNCc3ccc(NC(=O)c4cc(Cl)cc(Cl)c4)cc3)CC2)c(OC)c1 [TCMDC-138226]: 4.42
CN1CCC=C(C(=O)NCC(C)(C)c2nc(-c3ccc(Cl)c(O)c3)c(-c3ccncc3)[nH]2)C1.Cl [TCMDC-140700]: 13.36
COc1cc2nc(N3CCC(CNC(=O)c4ccc(-c5ccc(-c6noc(C)n6)cc5C)cc4)CC3)nc(N)c2cc1OC [TCMDC-138155]: 7.62

In: Which measured HepG2 cells mean TOX50 value corresponds to c1ccc(-c2nc(Nc3nc4ccccc4[nH]3)[nH]c2-c2ccccc2)cc1 [TCMDC-139099] ?
Out: 10.98

In: Same for Clc1cccc(C23N=C(Nc4nc5ccccc5[nH]4)NC2(c2ccccc2)NC(Nc2nc4ccccc4[nH]2)=N3)c1 (centres unmarked) [TCMDC-139089]
Out: 42.76

In: How about this compound: CC(C)(C)c1ccc(CNC(=O)c2ccc(CNC3CCC(N)CC3)s2)cc1 (centres unmarked) [TCMDC-140777]
Out: 8.95

In: Cool, now CC(Cc1ccc(CNC(=O)c2ccc(CC(C)NCCc3cccc(Cl)c3)cc2)cc1)NCCc1cccc(Cl)c1 (centres unmarked) [TCMDC-139659]
Out: 2.26

In: Now consider Nc1nc(N)c2c(ccc3c2ccn3Cc2cccc(F)c2)n1 [TCMDC-137810] .
Out: 0.06

* * *

The following compounds are listed with their measured HepG2 cells mean TOX50 values.
- Test system: HepG2 cells
- experiment-notes: HepG2 cytotoxicity assay
- Format: cell-based
- stated-conditions: HepG2 cells; mean
Please give a number only; it is taken to be in µM.

Consider the worked cases shown below.
Cc1c2ccncc2c(C)c2c1[nH]c1cc(Cc3ccccc3)c(O)cc12 [TCMDC-132053]: 1.23
CC(C)(C)c1ccc(CN2CCC(CNC(=O)c3cc(-c4ccccc4Cl)cs3)C2)cc1.O=C(O)C(F)(F)F (stereo not shown) [TCMDC-134445]: 6.17
Cc1ccnc(NC(c2cccc(Cl)c2Cl)c2ccc3cccnc3c2O)c1 (stereo not shown) [TCMDC-123997]: 45.69
CNCCNc1nccc(N2CCc3ncnc(Nc4ccc(OCc5cccc(F)c5)c(Cl)c4)c3C2)n1 [TCMDC-135478]: 5.62
Clc1cc(Br)ccc1-c1ccc(CNCC2CCNCC2)o1 [TCMDC-124617]: 4.37
Cc1cc(-c2ccc(CNC3Cc4ccccc4C3)cc2)ccc1S(=O)(=O)NCCN1CCCC1.O=C(O)C(F)(F)F [TCMDC-132243]: 5.31

In: # get_value(readout='HepG2 cells mean TOX50', item= O=C(O)C(F)(F)F.O=S(=O)(NCCN1CCCC1)c1cccc(-c2ccc(CNC3Cc4ccccc4C3)cc2)c1 [TCMDC-132241] )
Out: 6.46

In: Check CC(C)N1CCN(C(CN2CCN(CCCOc3ccc(-c4ccccc4)cc3)CC2)c2ccc(F)cc2)CC1.Cl (stereo not shown) [TCMDC-135497] too.
Out: 2.29

In: Same lookup for CCC1CN2CCc3cc(OC)c(OC)cc3C2CC1CC1NCCc2cc(OC)c(OC)cc21 (stereo not shown) [TCMDC-125849] , please.
Out: 2.24

In: Consider next the compound CCn1c(-c2nonc2N)nc2c(-c3cc4ccccc4s3)ncc(C(=O)N3CCC(N)C3)c21.O=C(O)C(F)(F)F (stereo not shown) [TCMDC-135281] in the same way.
Out: 1.00

In: Next entry: COc1ccc(CCNCCCCCCNCCc2ccc(-c3ccccc3)cc2)cc1OC.Cl [TCMDC-131267]
Out: 6.90

In: Then what about the compound Fc1ccc(OC2CN(c3nccc(NCc4ccccc4Cl)n3)C2)cc1 [TCMDC-135110] ?
Out: 83.45

In: Next compound: O=C(O)C(F)(F)F.c1cc(CN2CCC(CCN3CCCCC3)CC2)cc(-c2csc(-c3nc4ccccc4[nH]3)c2)c1 [TCMDC-133919]
Out: 6.04

In: Now the compound ON=C(c1nc2ccccc2[nH]1)c1nc2ccccc2[nH]1 [TCMDC-125758]
Out: 4.96
